- Test system: HT29 colon
- ASSAY DETAILS: NCI-60 one-dose screen, 48 h
- CONDITION PARAMETERS: 10 µM unless noted
Compounds without any hit were thinned out: in the full panel of roughly 83,000, 20% have a hit. Calls of active or inactive are those of the source. How the source made its calls: active means growth percent below 10; inactive means the rest.
Response enum: active, inactive

A selection of reference data follows.
MOLECULE: CN1C(=O)N(C)C2C1NN=c1s/c(=C\c3ccc(C(F)(F)F)cc3)c(=O)n12 (configuration not stated)
CLASS LABEL: active

MOLECULE: CC(C)c1ccc2c(c1)CCC1C2CCCC1(C)NCc1ccccc1 (configuration not stated)
CLASS LABEL: inactive

MOLECULE: FC(F)(F)c1nn[nH]n1
CLASS LABEL: inactive

GET /call?item= CCCCc1nc(Cl)c(C2CC(c3ccc(S(N)(=O)=O)cc3)=NN2c2cc(Cl)cc(Cl)c2)[nH]1 (configuration not stated) returns the recorded outcome of this test.
inactive

GET /call?item= C[C@@H]1CC2C3CCC4=CC(=O)C=C[C@]4(C)[C@@]3(Cl)[C@@H](O)C[C@]2(C)[C@@]1(OC(=O)c1ccco1)C(=O)CCl (some centres not stated) returns the recorded outcome of this test.
inactive

GET /call?item= `Cc1ccccc1Nc1n[nH]c(Cc2ccccc2)n1` returns the recorded outcome of this test.
inactive

GET /call?item= `C[N+](C)(C)CC(=O)N/N=C\c1ccco1` returns the recorded outcome of this test.
inactive

GET /call?item= CC(C)[C@@]12C[C@@H](OC(=O)C3CO3)[C@@](C)(O1)[C@@H]1CC[C@@H](C)[C@H]1[C@@H]2OC(=O)/C=C/c1ccccc1 (some centres not stated) returns the recorded outcome of this test.
inactive

GET /call?item= `O=S1(=O)NCCN1CCNc1nccc(-c2c(-c3cccc(O)c3)nc3sccn23)n1` returns the recorded outcome of this test.
inactive

GET /call?item= `O=C1SCN(Cc2ccccc2)CN1Cc1ccccc1` returns the recorded outcome of this test.
inactive

GET /call?item= `Cc1cc(C#Cc2ccc(C(C)(C)C)cc2)ccc1-n1c(/C=C/c2c(Cl)cccc2Cl)nc2ccccc2c1=O` returns the recorded outcome of this test.
inactive
